Test system: 843126-344-R-J1-PDC complex spheroid viability;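 also: spheroids exposed to drugs for seven days before readout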
Test: Anticancer human tumor 843126-344-R-J1-PDC patient-derived melanoma cell line growth inhibition [POLQ]
Conditions: second compound 0.0316 µM; first compound 0.0316 µM; hits give low values
Rule: measured viability, T/C below 80% gets MET; anything equal to or greater than 80% gets NOT MET.

- O=c1[nH]cc(F)c(=O)[nH]1 + Nc1ccc(C#CCN(C(=O)Cc2ncc(C(F)(F)F)cc2C(F)(F)F)c2ccc(F)cc2)nn1: NOT MET
- COc1cccc2c1C(=O)c1c(O)c3c(c(O)c1C2=O)CC(O)(C(=O)CO)CC3OC1CC(N)C(O)C(C)O1 (stereo not given) + Nc1ccc(C#CCN(C(=O)Cc2ncc(C(F)(F)F)cc2C(F)(F)F)c2ccc(F)cc2)nn1: NOT MET
- C#Cc1c(F)ccc2cc(O)cc(-c3ncc4c(N5CC6CCC(C5)N6)nc(OCC56CCCN5CC(F)C6)nc4c3F)c12 (stereo not given) + COC1C(OC(N)=O)C(O)C(Oc2ccc3c(O)c(NC(=O)c4ccc(O)c(CC=C(C)C)c4)c(=O)oc3c2C)OC1(C)C: NOT MET
- COc1cccc(OCCCN)c1-c1cc(Nc2cnc(C#N)cn2)n[nH]1 + Nc1ccc(C#CCN(C(=O)Cc2ncc(C(F)(F)F)cc2C(F)(F)F)c2ccc(F)cc2)nn1: MET
- CNCc1ccc(-c2[nH]c3cc(F)cc4c3c2CCNC4=O)cc1 + Nc1ccc(C#CCN(C(=O)Cc2ncc(C(F)(F)F)cc2C(F)(F)F)c2ccc(F)cc2)nn1: NOT MET
- CCc1c2c(nc3ccc(O)cc13)-c1cc3c(c(=O)n1C2)COC(=O)[C@]3(O)CC + COC1C(OC(N)=O)C(O)C(Oc2ccc3c(O)c(NC(=O)c4ccc(O)c(CC=C(C)C)c4)c(=O)oc3c2C)OC1(C)C: MET
- C#Cc1c(F)ccc2cc(O)cc(-c3ncc4c(N5CC6CCC(C5)N6)nc(OCC56CCCN5CC(F)C6)nc4c3F)c12 (stereo not given) + Nc1ccc(C#CCN(C(=O)Cc2ncc(C(F)(F)F)cc2C(F)(F)F)c2ccc(F)cc2)nn1: NOT MET
- C=CC(=O)N1CCN(c2nc(=O)n(-c3c(C)ccnc3C(C)C)c3nc(-c4c(O)cccc4F)c(F)cc23)C(C)C1 (stereo not given) + Nc1ccc(C#CCN(C(=O)Cc2ncc(C(F)(F)F)cc2C(F)(F)F)c2ccc(F)cc2)nn1: NOT MET
- Nc1ccn(C2OC(CO)C(O)C2(F)F)c(=O)n1 (stereo not given) + Nc1ccc(C#CCN(C(=O)Cc2ncc(C(F)(F)F)cc2C(F)(F)F)c2ccc(F)cc2)nn1: MET
- CC1COCCN1c1cc(C2(S(C)(=N)=O)CC2)nc(-c2ccnc3[nH]ccc23)n1 (stereo not given) + COC1C(OC(N)=O)C(O)C(Oc2ccc3c(O)c(NC(=O)c4ccc(O)c(CC=C(C)C)c4)c(=O)oc3c2C)OC1(C)C: NOT MET
